Target: Voltage-gated inwardly rectifying potassium channel KCNH2 (Homo sapiens)
Experiment: Human Ether-a-go-go-Related Gene (hERG) channel small molecule antagonists: fluorescence cell-based qHTS assay (AID 1671200); also: nearly all actives have a fitted effect of over 50% in size
Details: hERG-U2OS cells, FluxOR thallium flux fluorescence; series mostly up to 76.8 µM
Source text: National Center for Advancing Translational Sciences [NCATS] U.S. Environmental Protection Agency [EPA] National Institutes of Environmental Health Sciences [NIEHS] National Toxicology Program [NTP] U.S. Food and Drug Administration [FDA] Mutations in the hERG channel cause Long QT (LQT) syndrome. LQT syndrome is a cardiac disorder which can cause ventricle arrhythmia and sudden death. Additionally, compounds which block the hERG channel can cause acquired LQT syndrome. […]
Results filed as inconclusive are left out. The source made the active and inactive calls. Calls follow the shape of the dose curve; as a rule, active = well fitted inhibition curve with a large enough effect in the repeat runs; inconclusive = weak or mixed curves; inactive = flat fitted curve, though single readings scatter.
Hi! Could you answer with just one of these? active, inactive

[
  {
    "COMPOUND": "Oc1ccccc1O",
    "TEST SYSTEM": "Voltage-gated inwardly rectifying potassium channel KCNH2 (Homo sapiens)",
    "CAT": "inactive"
  },
  {
    "COMPOUND": "C=CC(=O)OCCOC(=O)C=C",
    "TEST SYSTEM": "Voltage-gated inwardly rectifying potassium channel KCNH2 (Homo sapiens)",
    "CAT": "inactive"
  },
  {
    "COMPOUND": "c1ccsc1",
    "TEST SYSTEM": "Voltage-gated inwardly rectifying potassium channel KCNH2 (Homo sapiens)",
    "CAT": "inactive"
  },
  {
    "COMPOUND": "CCCC(=O)OCCc1ccccc1",
    "TEST SYSTEM": "Voltage-gated inwardly rectifying potassium channel KCNH2 (Homo sapiens)",
    "CAT": "inactive"
  },
  {
    "COMPOUND": "COc1ccc2cc1Oc1ccc(cc1)C[C@H]1c3c(cc4c(c3Oc3cc5c(cc3OC)CCN(C)[C@@H]5C2)OCO4)CCN1C",
    "TEST SYSTEM": "Voltage-gated inwardly rectifying potassium channel KCNH2 (Homo sapiens)",
    "CAT": "active"
  },
  {
    "COMPOUND": "CCCNCCC",
    "TEST SYSTEM": "Voltage-gated inwardly rectifying potassium channel KCNH2 (Homo sapiens)",
    "CAT": "inactive"
  }
]

Q: What did the test return for `CC[N+](CC)(CC)CCOc1ccc(/C=C/c2ccccc2)cc1` ?
A: active

Q: What did the test return for `CCCC1CCC(=O)CC1` ?
A: inactive

Q: What did the test return for CCC(CC)C(C)CCOC(C)=O (configuration not stated) ?
A: inactive

Q: What did the test return for `C/C=C/C=C/COC(=O)C(C)C` ?
A: inactive

Q: What did the test return for `CCCC(=O)OC(C)(C)Cc1ccccc1` ?
A: inactive

Q: What did the test return for `OCC(F)(F)F` ?
A: inactive

Q: What did the test return for `O=c1[nH]c2ccccc2n1CCCN1CCN(C(c2ccccc2)c2ccccc2)CC1` ?
A: active

Q: What did the test return for `CC1(C)CC(O)CC(C)(C)N1` ?
A: inactive

Q: What did the test return for `COc1ccc(NC(=O)CC(C)=O)cc1` ?
A: inactive

Q: What did the test return for CCCCCCOC(=O)C(C)CC (configuration not stated) ?
A: inactive

Q: What did the test return for `COc1ccc2c(c1)c(CC(=O)OC/C=C(\C)CC/C=C(\C)CCC=C(C)C)c(C)n2C(=O)c1ccc(Cl)cc1` ?
A: inactive

Q: What did the test return for C=CC(C)(CCC=C(C)C)OC=O (configuration not stated) ?
A: inactive

Q: What did the test return for `COC1=C(OC)C(=O)C(CCCCCCCCCCO)=C(C)C1=O` ?
A: inactive

Q: What did the test return for `O=C(O)CCN(C1(C(=O)NO)CCCC1)S(=O)(=O)c1ccc(Oc2ccc(F)cc2)cc1` ?
A: inactive

Q: What did the test return for `CCCCCC/C=C\CCCCCCCC(=O)O` ?
A: inactive

Q: What did the test return for `O=C1C(c2[nH]c3ccc(S(=O)(=O)O)cc3c2O)=Nc2ccc(S(=O)(=O)O)cc21` ?
A: inactive

====

assay: qHTS assay to identify small molecule antagonists of the retinoid-related orphan receptor gamma (ROR-gamma) signaling pathway - cell viability counter screen (AID 1159520); conditions: Tet-on RORgamma CHO cells viability, ATP luminescence, 16 h; series mostly up to 92.4 µM; also: % is scaled to controls: 0 for no effect and ±100 for the full control effect; nearly all actives have a fitted effect of over 50% in size
Results filed as inconclusive are left out. Activity calls are given as the source filed them. Calls come from the whole dose curve; as a rule, active = well fitted cell-killing curve with a large enough effect in the repeat runs; inconclusive = weak or mixed curves, or effect the other way; inactive = no such curve, though single readings can be large or run the other way.
Hi! Could you answer with just one of these? 1.0 for active, 0.0 for inactive

[
  {
    "MOLECULE": "CCc1cccc(CC)c1NC(=O)CN(CC(=O)O)CC(=O)O",
    "CAT": 0.0
  },
  {
    "MOLECULE": "CCCCCC/C=C\\CCCCCCCC(=O)O",
    "CAT": 0.0
  },
  {
    "MOLECULE": "CC(C)(c1cc(Br)c(OCC(Br)CBr)c(Br)c1)c1cc(Br)c(OCC(Br)CBr)c(Br)c1 (configuration not stated)",
    "CAT": 0.0
  }
]

Please find the next molecule below.
Q: What did the test return for `Cc1ccc(C)cc1` ?
A: 0.0

====

assay: qHTS assay to identify small molecule agonists of the AP-1 signaling pathway (AID 1159526); details: ME-180 (cervical carcinoma) AP-1-bla reporter, beta-lactamase FRET ratio, 5 h; series mostly up to 76.8 µM; also: % is scaled to controls: 0 for no effect and ±100 for the full control effect
Results filed as inconclusive are left out. The source made the active and inactive calls. The call rests on the fitted dose curve.
REPORTED PROPERTY: activation

Some solved cases for reference:
[
  {
    "COMPOUND": "CCCCCCCCCCOC(=O)c1ccccc1C(=O)OCCCCCCCC",
    "activation": "inactive"
  },
  {
    "COMPOUND": "CN(C)C(=O)COC(=O)Cc1ccc(OC(=O)c2ccc(N=C(N)N)cc2)cc1",
    "activation": "inactive"
  },
  {
    "COMPOUND": "COc1ccc2c(c1)c(CC(=O)OC/C=C(\\C)CC/C=C(\\C)CCC=C(C)C)c(C)n2C(=O)c1ccc(Cl)cc1",
    "activation": "inactive"
  },
  {
    "COMPOUND": "Cc1c(C)c2c(c(C)c1OC(=O)c1cccnc1)CC[C@@](C)(CCC[C@H](C)CCC[C@H](C)CCCC(C)C)O2",
    "activation": "inactive"
  },
  {
    "COMPOUND": "COC(C)=O",
    "activation": "inactive"
  },
  {
    "COMPOUND": "Nc1nc2c(ncn2COCCO)c(=O)[nH]1",
    "activation": "inactive"
  },
  {
    "COMPOUND": "CC(N=C(NC#N)Nc1ccncc1)C(C)(C)C (configuration not stated)",
    "activation": "inactive"
  },
  {
    "COMPOUND": "Cc1c(N)cccc1C(F)(F)F",
    "activation": "inactive"
  },
  {
    "COMPOUND": "CCOC(=O)Cn1cccc1-c1nc(-c2ccc(OC)cc2)c(-c2ccc(OC)cc2)s1",
    "activation": "inactive"
  },
  {
    "COMPOUND": "Cc1ccc(O)c(O)c1",
    "activation": "inactive"
  }
]

Quick batch: activation for everything below.
1. Clc1nnc(Cl)c2ccccc12
2. Cc1ccc(C)cc1

A:
inactive
inactive

====

assay: qHTS RealTime-Glo MT Cell Viability Assay in HepG2 cells - 16 hour (AID 1224885); conditions: RealTime-Glo luminescence; series mostly up to 76.8 µM; also: % is scaled to controls: 0 for no effect and ±100 for the full control effect; nearly all actives have a fitted effect of over 50% in size
Records with an inconclusive call do not appear. Active and inactive are the calls of the source. The call rests on the fitted dose curve; in most records, active means well fitted cell-killing curve with a large enough effect in the repeat runs; inconclusive means weak or mixed curves; inactive means flat fitted curve, though single readings scatter.
REPORTED PROPERTY: activity change, negative = cytotoxic

[
  {
    "COMPOUND STRING": "O=C(O)CN(CCN(CC(=O)O)CC(=O)O)CC(=O)O",
    "activity change, negative = cytotoxic": "-5.14% [at 2.72 µM] (inactive)"
  },
  {
    "COMPOUND STRING": "C[C@@H](O)[C@H](N)C(=O)O",
    "activity change, negative = cytotoxic": "-0.0796% [at 15.8 µM] (inactive)"
  },
  {
    "COMPOUND STRING": "O=C1NC(=O)[C@@H]2CC=CC[C@H]12",
    "activity change, negative = cytotoxic": "inactive"
  },
  {
    "COMPOUND STRING": "CN(C)CCN1CCN(c2cccc(Cl)c2)C1=O",
    "activity change, negative = cytotoxic": "inactive"
  }
]

Quick batch: activity change, negative = cytotoxic for everything below.
1. Cc1cccc(C)c1NC(=O)c1ccc(N)cc1
2. O=C(O)c1cc(=O)c2ccccc2o1
3. O=C(O)CCN(C1(C(=O)NO)CCCC1)S(=O)(=O)c1ccc(Oc2ccc(F)cc2)cc1
4. Cl[Si](Cl)(c1ccccc1)c1ccccc1
5. COc1cc2nc(N3CCN(C(=O)c4ccco4)CC3)nc(N)c2cc1OC

A:
1. inactive
2. inactive
3. inactive
4. inactive
5. -15.2% [at 15.8 µM] (inactive)
